Molecular target: UniProtKB Q13153
Sequence (Q13153 2-545): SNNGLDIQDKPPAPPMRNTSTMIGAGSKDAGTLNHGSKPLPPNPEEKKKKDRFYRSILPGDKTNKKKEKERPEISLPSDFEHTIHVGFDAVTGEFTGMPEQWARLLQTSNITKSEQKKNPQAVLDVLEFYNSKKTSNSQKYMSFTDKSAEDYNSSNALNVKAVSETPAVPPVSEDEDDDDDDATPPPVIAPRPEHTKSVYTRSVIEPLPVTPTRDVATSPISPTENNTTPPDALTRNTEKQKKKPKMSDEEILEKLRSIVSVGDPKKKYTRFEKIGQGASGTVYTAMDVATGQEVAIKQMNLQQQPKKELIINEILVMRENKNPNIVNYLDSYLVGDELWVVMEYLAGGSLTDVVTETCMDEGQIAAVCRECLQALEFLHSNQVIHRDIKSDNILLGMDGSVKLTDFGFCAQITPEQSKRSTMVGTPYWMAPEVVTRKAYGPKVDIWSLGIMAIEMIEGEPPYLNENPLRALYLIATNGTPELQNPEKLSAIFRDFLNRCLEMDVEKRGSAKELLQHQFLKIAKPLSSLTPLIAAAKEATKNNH
Assay: ADP-Glo kinase assay with human recombinant PAK1 (also labchip-based screen)
readout: IC50 (µM)

>  <given.smiles>
CC(C)=CC[C@@H](O)C1=CC(=O)c2c(O)ccc(O)c2C1=O

>  <readout>
IC50

>  <unit.text>
µM

>  <observed.result>
7.25

$$$$
